tested on: Mino; assay: Cell Titer Glo viability assay, Mino; format: cell-based; settings: Homo sapiens; Mino, MCL; single agent; 72 hours; read-out: Inhibition of Viability, EC50
assay.endpoint: EC50 (nM)
// return numeric value only (unit: nM, not printed)

// field: EC50; key: `COc1cccc2c1C(=O)c1c(O)c3c(c(O)c1C2=O)C[C@@](O)(C(=O)CO)C[C@@H]3O[C@H]1C[C@H](N)[C@H](O)[C@H](C)O1` ; value = 114

Others:
// field: EC50; key: `CC[C@]1(O)C[C@H]2CN(CCc3c([nH]c4ccccc34)[C@@](C(=O)OC)(c3cc4c(cc3OC)N(C=O)[C@H]3[C@@](O)(C(=O)OC)[C@H](OC(C)=O)[C@]5(CC)C=CCN6CC[C@]43[C@@H]65)C2)C1` ; value = 42

# credit: patent US10080756B2
